biological target: V158D/E296V/M298Q-FVIIa (Homo sapiens, UniProt P08709, E356V/M358Q/V218D); construct: made in house; assay: Isothermal titration calorimetry (iTC200) binding to V158D/E296V/M298Q-FVIIa; conditions: binding buffer pH 7.4, 20° C.
Property label: pKd
# reply with the number alone; pKd is -log10 of concentration in mol/L

# value of pKd, V158D/E296V/M298Q-FVIIa (Homo sapiens, UniProt P08709, E356V/M358Q/V218D), item N=C(N)c1ccc2[nH]c(-c3cc(CC(=O)N[C@@H](CC(=O)O)C(=O)O)cc(-c4cc(S(N)(=O)=O)ccc4O)c3O)nc2c1 = 8.66
